# ASSAY_DETAILS: Evaluation using rat 2: concentration of TA in the bladder after administration to the lumen of the bladder, LC/MS/MS
# Type: in vivo
# ASSAY_CONTEXT: bladder homogenate on day 7 after administration; TA dose 0.8 mg/animal into the bladder; hydrochloric acid-pretreated rat; read-out: Concentration of API (TA)
EXPERIMENTAL_ENDPOINT: concentration at 7 days (ng/g)
Report only the number, with the unit ng/g understood.

Req: Requested field: concentration at 7 days. Item: CC1(C)O[C@@H]2C[C@H]3[C@@H]4CCC5=CC(=O)C=C[C@]5(C)[C@@]4(F)[C@@H](O)C[C@]3(C)[C@]2(C(=O)CO)O1 [TA, triamcinolone acetonide]
Resp: 4.09
